TEST_DESCRIPTION: NCI Yeast Anticancer Drug Screen. Data for the mlh1 strain (AID 171);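 note: 0% = growth of vehicle-treated control cultures of the same strain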
MEASUREMENT_SETUP: S. cerevisiae mlh1 strain growth inhibition; at 33.0 µM
Compounds without any hit were thinned out: in the full panel of roughly 79,000, 15% have a hit. The source made the active and inactive calls. Cut-off read from the data, not from the text of the source: active = growth inhibition above about 70%; inactive = the rest.
A correct response names exactly one class from yes = active, no = inactive

Answered cases to consult:
O=C1C=CC(=Nc2ccc3c(c2)Cc2cc(Cl)ccc2-3)O1    yes
Cc1ccc2c(/C=C/c3ccc(N(C)C)cc3)ccnc2c1C    no
O=Cn1c2ccccc2c2ccccc21    no
O=C1c2ccccc2C(=O)C1C(c1ccc(F)cc1)C1C(=O)c2ccccc2C1=O    no
Nc1nc(Nc2ccccc2)nc(Nc2ccccc2)n1    no
N#C/C(=C1C=C/C(=N\O)C(Cl)=C\1)c1ccccc1    no

Attention now shifts to the item below.
## Input Just curious, what result did CCSc1c2ccccc2c(-c2nc(F)nc(F)n2)n1CCc1ccccc1 get here?
## Output yes

###

TEST_DESCRIPTION: NCI Yeast Anticancer Drug Screen. Data for the rad18 strain (AID 177)
MEASUREMENT_SETUP: S. cerevisiae rad18 mutant growth inhibition; at 100.0 µM; active compounds read high
This is part of a sample that, as a whole, favours compounds with a hit. Of some 79,000 tested, about 15% had one in any assay. Active and inactive are the calls of the source. No stated cut-off is given here; in the data, active means growth inhibition above about 70%; inactive means the rest.
PROPERTY_MEASURED: growth inhibition

// worked examples, growth inhibition included
O=C(N/N=C/c1ccc2c(c1)CCC2)c1ccccc1[N+](=O)[O-]    96% (active)
O=Cc1ccccc1B(O)O    99% (active)

## Input Please indicate growth inhibition recorded for COc1cc(C(C)(C)C)cc(OC)c1C(O)(c1c(OC)cc(C(C)(C)C)cc1OC)c1c(OC)cc(C(C)(C)C)cc1OC
## Output 87% (active)

## Input Give a short answer stating reported growth inhibition for CN(C)CCC(=O)c1c[nH]c2ccccc12 .
## Output 57% (inactive)

###

TEST_DESCRIPTION: NCI Yeast Anticancer Drug Screen. Data for the bub3 strain (AID 167)
MEASUREMENT_SETUP: S. cerevisiae bub3 mutant strain, at 3.7 µM, active compounds read high
The panel holds about 79,000 compounds, 15% with a hit somewhere; the sample as a whole holds those more often.
PROPERTY_MEASURED: growth inhibition (%)
Return type: number; implicit unit %.

CCOC(=O)/C(O)=C(/C=N/C(=S)Nc1c(CC)cccc1CC)C(=O)OCC    -10
O=c1[nH]cc(F)c(=O)[nH]1    7

## Input Given C=Cc1c(C)c(O)cc2c1-c1ccc(O)c(C)c1CC2 , respond with its growth inhibition.
## Output -11

## Input Assign growth inhibition to the following record: CC1(C)CC(=O)C(C(CC(c2ccccc2)c2cc3c(cc2O)OCO3)C2=C(O)CC(C)(C)CC2=O)=C(O)C1 (centres undefined)
## Output -9

## Input Supply growth inhibition value. Item: COc1ccc(CCN2C(=O)C=CC2=O)cc1OC
## Output 43

## Input Please give measured growth inhibition of the following entry: O=C1C=CC(=O)N1c1ccc(Br)cc1Cl
## Output 101

## Input Using the record for Cc1c(N=Nc2ccc(Cl)cc2)c(C)n(C2OC(CO)C(O)C(O)C2O)c(=S)c1C#N (centres undefined) , state its measured growth inhibition.
## Output 2

## Input Give reported growth inhibition value for O=C(/C(=C/c1ccccc1)CBr)c1ccccc1
## Output 0

Origin of values: PubChem BioAssay (NCI)
